- tgt: STEP (Homo sapiens)
- Construct: made in house; host or cells: E. coli
- Sequence (P54829 1-565): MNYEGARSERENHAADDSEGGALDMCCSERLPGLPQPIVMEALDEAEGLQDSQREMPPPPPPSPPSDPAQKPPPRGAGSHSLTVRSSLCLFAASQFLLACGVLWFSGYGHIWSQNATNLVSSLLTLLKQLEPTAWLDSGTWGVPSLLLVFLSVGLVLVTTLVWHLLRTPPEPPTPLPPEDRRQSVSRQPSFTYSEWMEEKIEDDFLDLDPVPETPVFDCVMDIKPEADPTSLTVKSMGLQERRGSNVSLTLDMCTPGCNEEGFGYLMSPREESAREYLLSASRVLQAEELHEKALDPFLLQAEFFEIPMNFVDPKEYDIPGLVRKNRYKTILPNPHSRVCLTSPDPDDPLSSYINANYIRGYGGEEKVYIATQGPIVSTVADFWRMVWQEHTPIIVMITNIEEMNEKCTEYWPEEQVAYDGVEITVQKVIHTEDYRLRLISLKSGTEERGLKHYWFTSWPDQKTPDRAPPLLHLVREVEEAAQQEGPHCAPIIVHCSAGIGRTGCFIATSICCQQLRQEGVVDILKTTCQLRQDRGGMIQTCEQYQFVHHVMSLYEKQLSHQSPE
- assay: Tyrosine phosphatase selectivity (pNPP substrate), STEP
- Assay type: biochemical
- experimentalContext: selectivity ratio STEP over SHP2
quantityKind: IC50PTP/IC50SHP2 STEP
Please respond with just the number, no unit label.

Enquiry: Please indicate IC50PTP/IC50SHP2 STEP recorded for Cn1cc(-c2ccc(NC(=O)C(=O)Nc3ccc(-c4cc5cc(F)c(-c6noc(=O)[nH]6)cc5n4C4CCC4)cc3)cc2)cn1
Return: 109.9

Enquiry: Note IC50PTP/IC50SHP2 STEP for the compound shown: O=C(Nc1ccc(-c2oc3cc(F)c(-c4nnn[nH]4)cc3c2C2CCC2)cc1)C(=O)Nc1ccc(N2CCC3(CCOC3)CC2)cc1
Return: 129.8

Enquiry: Dear colleague, please send me the reported IC50PTP/IC50SHP2 STEP for Cn1c(-c2cccc(NC(=O)C(=O)Nc3ccc(-c4ccsc4)cc3)c2)c(I)c2cc(C(=O)O)c(O)cc21 [Example 11a-1, reference compound] when you can.
Return: 37.0

Each recorded value in this set is attributed to patent EP4741383A1.
